Hi there, I'd appreciate the recorded SPOT peptide array binding signal intensity for every entry that follows.
# System: AgBzz1-D2
# Assay explanation: SPOT peptide array binding signal intensity (averaged, normalized) (arbitrary units (background-subtracted, floor 0; scale differs between SH3 domains)); higher = stronger binding of the SH3 domain to the peptide

Find the recorded SPOT peptide array binding signal intensity belonging to `VPVAPPPPPASLGQS` and report it.
≤ 0

Find the recorded SPOT peptide array binding signal intensity belonging to `RVRKTHVPASKRPSG` and report it.
≤ 0

Find the recorded SPOT peptide array binding signal intensity belonging to `PELAPKREAPKPPAN` and report it.
12

Find the recorded SPOT peptide array binding signal intensity belonging to `RRSKSLPTTPGIRSG` and report it.
43

Find the recorded SPOT peptide array binding signal intensity belonging to `NPNRRAPRRPLSTQH` and report it.
96

Find the recorded SPOT peptide array binding signal intensity belonging to `MTKTPETSPPKRPMG` and report it.
11.5

Find the recorded SPOT peptide array binding signal intensity belonging to `GKKVRPLLVLLLSRA` and report it.
2

Find the recorded SPOT peptide array binding signal intensity belonging to `KFIPSRPAPKPPSSA` and report it.
69.5

Find the recorded SPOT peptide array binding signal intensity belonging to `MKRSRPSRSIPYTTP` and report it.
22

Find the recorded SPOT peptide array binding signal intensity belonging to `VNFRRIPTGPDSPPT` and report it.
258

Find the recorded SPOT peptide array binding signal intensity belonging to `TKPTPPPKPSHLKPK` and report it.
13

Hey, just so you know, these numbers are from the supplement of paper PMC4466140.
